// provenance: patent US20240217990A1

Each entry below carries its reported EC50.
# target_or_system: TLR8 (Homo sapiens)
# Construct: Human peripheral blood mononuclear cells (PBMCs) consist of lymphocytes, monocytes and dendritic cells that express TLR7, TLR8 and TLR9; endogenous in cells
# Sequence (Q9NR97 27-1041): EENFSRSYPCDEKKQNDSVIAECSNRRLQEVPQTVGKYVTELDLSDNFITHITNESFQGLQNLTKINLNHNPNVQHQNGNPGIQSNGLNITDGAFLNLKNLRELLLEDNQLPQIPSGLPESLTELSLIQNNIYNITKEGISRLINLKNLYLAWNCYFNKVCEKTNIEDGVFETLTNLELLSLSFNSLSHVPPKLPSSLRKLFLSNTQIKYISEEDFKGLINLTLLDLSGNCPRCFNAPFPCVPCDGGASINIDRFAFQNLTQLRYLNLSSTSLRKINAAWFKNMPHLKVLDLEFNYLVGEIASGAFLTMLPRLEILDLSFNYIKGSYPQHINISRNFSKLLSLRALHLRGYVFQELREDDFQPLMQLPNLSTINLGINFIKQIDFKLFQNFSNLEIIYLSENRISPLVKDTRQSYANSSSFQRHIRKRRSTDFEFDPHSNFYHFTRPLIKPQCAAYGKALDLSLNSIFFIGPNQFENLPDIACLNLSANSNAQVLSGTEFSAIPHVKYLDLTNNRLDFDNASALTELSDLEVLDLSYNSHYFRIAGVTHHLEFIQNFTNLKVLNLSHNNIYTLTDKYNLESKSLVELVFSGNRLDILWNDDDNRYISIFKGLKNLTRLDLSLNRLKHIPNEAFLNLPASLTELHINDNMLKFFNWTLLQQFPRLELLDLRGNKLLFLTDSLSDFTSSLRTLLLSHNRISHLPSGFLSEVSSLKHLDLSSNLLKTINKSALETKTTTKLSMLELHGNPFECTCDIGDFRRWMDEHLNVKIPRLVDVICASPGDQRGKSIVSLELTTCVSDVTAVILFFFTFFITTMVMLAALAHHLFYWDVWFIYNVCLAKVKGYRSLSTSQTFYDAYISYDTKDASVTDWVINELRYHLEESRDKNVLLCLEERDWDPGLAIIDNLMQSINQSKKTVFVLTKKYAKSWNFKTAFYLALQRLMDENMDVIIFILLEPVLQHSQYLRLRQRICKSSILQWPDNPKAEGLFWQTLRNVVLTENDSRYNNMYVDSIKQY
# experimental_details: TLR8 human PBMC cell-based assay (antagonist, Compound A stimulated cytokine release)
# condition_parameters: human PBMCs; TLR8 agonist Compound A 800 nM, 6 hours; cytokines (TNFa and IL 12p40) in supernatant; read-out: TLR-8 EC50
# Excerpt: Human peripheral blood mononuclear cells (PBMCs) consist of lymphocytes, monocytes and dendritic cells that express TLR7, TLR8 and TLR9. These cells respond to TLR7, TLR8 and TLR9 ligand stimulation and produce cytokines and chemokines in vitro and in vivo. Human PBMCs are therefore suitable to be used in a cell-based assay to assess the in vitro potency of a TLR 7, 8, and/or 9 antagonist. […]

compound: Cc1cc(-c2[nH]c3cc(C(=O)N4CCC[C@H](N)[C@@H]4C)sc3c2C(C)C)cn2ncnc12 [Example 87]
observed_property: EC50
endpoint_result: 13 nM
--
compound: COc1cc(-c2[nH]c3cc(-c4cn(C5CCNCC5)nn4)sc3c2C(C)C)cn2ncnc12 [Example 232]
observed_property: EC50
endpoint_result: 1.3 nM
--
compound: Cc1cc(-c2[nH]c3cc(C4CCC5(CCN(CC(N)=O)C5)C4)sc3c2C(C)C)cn2ncnc12 (stereo not drawn) [Example 280]
observed_property: EC50
endpoint_result: 7.51 nM
--
compound: Cc1cc(-c2[nH]c3cc(C4CCC5(CC4)CN(C(=O)[C@@H]4CCCN4C)C5)sc3c2C(C)C)cn2ncnc12 [Example 206]
observed_property: EC50
endpoint_result: 15.4 nM
--
compound: Cc1cc(-c2[nH]c3cc(-c4cnn(C5CCN(CCO)CC5)c4)sc3c2C(C)C)cn2ncnc12 [Example 189]
observed_property: EC50
endpoint_result: 0.7 nM

**Q:** Supply reported EC50 belonging to this compound: Cc1cc(-c2[nH]c3cc(-c4ccc5nc(C6N[C@@H]7CC[C@H]6C7)[nH]c5c4)sc3c2C(C)C)cn2ncnc12 (stereo partly drawn) [Example 212]
**A:** 1.6 nM

* * *

# target_or_system: TLR7 (Homo sapiens, UniProt Q9NYK1)
# Construct: Human peripheral blood mononuclear cells (PBMCs) consist of lymphocytes, monocytes and dendritic cells that express TLR7, TLR8 and TLR9; endogenous in cells
# Sequence (Q9NYK1 27-1049): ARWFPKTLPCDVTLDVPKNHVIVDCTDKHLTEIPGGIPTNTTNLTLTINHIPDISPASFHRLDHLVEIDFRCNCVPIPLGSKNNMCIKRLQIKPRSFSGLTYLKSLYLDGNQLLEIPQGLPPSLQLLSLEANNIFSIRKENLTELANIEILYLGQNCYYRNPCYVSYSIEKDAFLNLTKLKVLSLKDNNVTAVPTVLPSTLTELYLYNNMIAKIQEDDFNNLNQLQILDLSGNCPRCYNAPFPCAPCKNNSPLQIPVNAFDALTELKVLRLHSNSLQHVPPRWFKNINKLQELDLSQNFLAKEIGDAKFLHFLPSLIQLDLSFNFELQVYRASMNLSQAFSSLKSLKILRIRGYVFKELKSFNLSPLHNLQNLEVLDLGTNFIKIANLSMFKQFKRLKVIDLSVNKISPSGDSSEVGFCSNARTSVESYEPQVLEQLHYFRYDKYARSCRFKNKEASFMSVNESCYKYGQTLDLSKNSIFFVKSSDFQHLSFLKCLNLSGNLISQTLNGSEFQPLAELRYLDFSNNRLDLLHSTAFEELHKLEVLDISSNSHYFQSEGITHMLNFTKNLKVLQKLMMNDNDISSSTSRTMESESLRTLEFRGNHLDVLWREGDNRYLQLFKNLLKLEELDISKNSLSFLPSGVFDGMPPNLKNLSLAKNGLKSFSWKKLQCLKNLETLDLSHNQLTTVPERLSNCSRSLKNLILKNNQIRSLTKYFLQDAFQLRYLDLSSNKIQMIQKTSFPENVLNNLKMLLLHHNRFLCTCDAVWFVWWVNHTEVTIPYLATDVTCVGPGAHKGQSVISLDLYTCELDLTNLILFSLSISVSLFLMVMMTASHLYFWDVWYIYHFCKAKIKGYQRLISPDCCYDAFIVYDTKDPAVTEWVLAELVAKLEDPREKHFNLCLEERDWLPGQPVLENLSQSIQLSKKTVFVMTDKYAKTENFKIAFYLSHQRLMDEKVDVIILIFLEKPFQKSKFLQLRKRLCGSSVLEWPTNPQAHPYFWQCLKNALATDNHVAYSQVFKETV
# experimental_details: TLR7 human PBMC cell-based assay (antagonist, GS-986 stimulated cytokine release)
# condition_parameters: human PBMCs; TLR7 agonist GS-986 400 nM, 6 hours; cytokines (IL-6 and IFNα) in supernatant; read-out: TLR-7 EC50
observed_property: pEC50
Remember the convention: pEC50 equals -log10 of concentration in molar.

compound: COc1cc(-c2[nH]c3cc(C(=O)N4CCNCC4)sc3c2C(C)C)cn2ncnc12
target_or_system: TLR7 (Homo sapiens, UniProt Q9NYK1)
endpoint_result: 9.05
--
compound: Cc1cc(-c2[nH]c3cc(C(=O)N4C[C@@H](C)N[C@H](C)C4)sc3c2C(C)C)cn2ncnc12
target_or_system: TLR7 (Homo sapiens, UniProt Q9NYK1)
endpoint_result: 8.82
--
compound: Cc1cc(-c2[nH]c3cc(C4CCN(CC(N)=O)CC4)sc3c2C(C)C)cn2ncnc12
target_or_system: TLR7 (Homo sapiens, UniProt Q9NYK1)
endpoint_result: 8.82
--
compound: Cc1cc(-c2[nH]c3cc(C4CC5CCC(C4)N5CC(N)=O)sc3c2C(C)C)cn2ncnc12 (centres unmarked)
target_or_system: TLR7 (Homo sapiens, UniProt Q9NYK1)
endpoint_result: 9.25

**Q:** Using known records, supply pEC50 for Cc1cc(-c2[nH]c3cc(C(=O)N4CCNC(C)(C)C4)sc3c2C(C)C)cn2ncnc12
**A:** 8.89

**Q:** Indicate the recorded pEC50 value for this compound: Cc1cc(-c2[nH]c3cc(C(=O)N4CCC5(CCN(CC(N)=O)C5)CC4)sc3c2C(C)C)cn2ncnc12
**A:** 9.10

**Q:** Specify measured pEC50 for Cc1cc(-c2[nH]c3cc(C(=O)N4CCNCC4)sc3c2C(C)C)cn2nnnc12 .
**A:** 8.74

**Q:** Annotate the compound Cc1c(C(=O)N2CCC[C@H](N)[C@@H]2C)sc2c(C(C)C)c(-c3cc(C)c4ncnn4c3)[nH]c12 with its measured pEC50.
**A:** 7.81

**Q:** Answer with reported pEC50 of Cc1cc(-c2[nH]c3cc(-c4ccc(C5CCNCC5)cc4)sc3c2C(C)C)cn2ncnc12
**A:** 9.10

**Q:** Tell me measured pEC50 for Cc1c(C(=O)N(C)C2CCNCC2)sc2c(C(C)C)c(-c3cc(C)c4ncnn4c3)[nH]c12 please.
**A:** 8.85

**Q:** Tell us which pEC50 value is on record for Cc1cc(-c2[nH]c3cc(C(=O)N(C)C4CCN(C(=O)CN(C)C)CC4)sc3c2C(C)C)cn2ncnc12
**A:** 9.15
